Listed below: pKd values for each entry.
Target: T1, EsCas13d, nuclease-dead (Eubacterium siraeum, UniProt B0MS50, R295A;H300A;R849A;H854A)
T1 sequence: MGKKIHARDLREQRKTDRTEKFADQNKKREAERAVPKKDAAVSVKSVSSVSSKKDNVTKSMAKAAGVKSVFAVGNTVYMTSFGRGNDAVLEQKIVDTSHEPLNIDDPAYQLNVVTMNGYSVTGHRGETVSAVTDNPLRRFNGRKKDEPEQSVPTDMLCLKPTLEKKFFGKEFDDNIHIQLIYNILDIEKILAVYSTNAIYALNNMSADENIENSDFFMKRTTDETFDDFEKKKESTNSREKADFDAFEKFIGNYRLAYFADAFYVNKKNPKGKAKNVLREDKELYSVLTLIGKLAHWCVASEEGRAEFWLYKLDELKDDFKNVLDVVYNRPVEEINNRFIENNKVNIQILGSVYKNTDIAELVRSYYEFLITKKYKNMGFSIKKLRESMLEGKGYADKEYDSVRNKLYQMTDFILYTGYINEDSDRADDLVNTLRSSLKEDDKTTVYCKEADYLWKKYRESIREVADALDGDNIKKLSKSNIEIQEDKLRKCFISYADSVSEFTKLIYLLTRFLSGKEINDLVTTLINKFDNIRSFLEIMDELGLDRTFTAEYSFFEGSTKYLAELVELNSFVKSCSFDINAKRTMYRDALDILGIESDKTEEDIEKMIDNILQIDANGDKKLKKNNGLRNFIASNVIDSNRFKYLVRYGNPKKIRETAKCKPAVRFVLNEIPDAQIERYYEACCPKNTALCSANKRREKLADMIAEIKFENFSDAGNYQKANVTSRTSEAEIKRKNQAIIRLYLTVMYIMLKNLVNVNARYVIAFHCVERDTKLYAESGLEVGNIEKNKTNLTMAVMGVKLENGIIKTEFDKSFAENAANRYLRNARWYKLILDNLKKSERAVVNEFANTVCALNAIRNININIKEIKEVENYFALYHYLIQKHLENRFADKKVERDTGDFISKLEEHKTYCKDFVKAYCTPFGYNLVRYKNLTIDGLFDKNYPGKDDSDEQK
Assay: crRNA (strand 1, pre-loaded); Mg2+; 40 mM Tris-HCl pH 7.5, 150 mM NaCl, 6 mM MgCl2, 1 mM DTT, 0.1% Tween-20, 0.2 mg/ml BSA; 25 C; 10 min per concentration, then washed
Settings: tags: His6-TwinStrep-SUMO cleaved; N-terminal SNAP kept (SNAP-Surface 488); label: 3' end held by stalled T7 RNA polymerase
pKd here: minus log base 10 of the concentration, concentration in moles per litre.

target 1 insC 3' of 15,insA 3' of 15 (mixed) RNA 1: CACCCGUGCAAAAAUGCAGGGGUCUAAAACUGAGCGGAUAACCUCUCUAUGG RNA 2: GGGAAUGGAUCCACAUCUACGAAUUCGUACCAUAGAGCAAGGUUAUCCGCUCACCGAGAUCGGAAGAGCACACGU : 8.06

pKd lookup needed for target 2 MT 5'PFS ACG 3'PFS AAU (mixed) RNA 1: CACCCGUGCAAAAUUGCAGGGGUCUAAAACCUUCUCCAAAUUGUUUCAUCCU RNA 2: GGGAAUGGAUCCACAUCUACGAAUUCACGAGGAUGAAACAAUUUGGAGAAGAAUAGAUCGGAAGAGCACACGU , thanks.
8.27
